Here, each record is paired with measured %Inh data.
Test system: MEK3;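 also: KINOMEscan kinase panel screen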
Construct: gene MAP2K3
details: concentration: 1 μM,replicates: in singlicate; n = 1
metric.name: %Inh (%)

cpd_smiles=Cn1cc(-c2cccc3c(N)c(C(N)=O)nnc23)cn1 target_entity=MEK3 result=60
cpd_smiles=Cn1ccc2ncnc(Oc3ccc(NC(=O)Nc4cccc(C(F)(F)F)c4)c(F)c3)c21 target_entity=MEK3 result=3
cpd_smiles=CS(=O)(=O)Nc1ccc(-c2ccnc3[nH]ccc23)cc1 target_entity=MEK3 result=43
cpd_smiles=Cc1ccc(CC(=O)N2CCc3cc(-c4cn(C)c5ncnc(N)c45)ccc32)cc1 target_entity=MEK3 result=0
cpd_smiles=Cl.Cl.NC[C@H](CC1CCCCC1)NC(=O)c1ccc(-c2ccnc3[nH]ccc23)s1 target_entity=MEK3 result=93.8
cpd_smiles=NC(=O)c1ccc(-c2cc3ncnc(SCC(=O)O)c3s2)cc1 target_entity=MEK3 result=9
cpd_smiles=O=C(NOCC1CC1)c1cc(Br)c(F)c(F)c1Nc1ccc(I)cc1Cl target_entity=MEK3 result=15
cpd_smiles=Cc1cccc(-c2nc(Nc3ccncc3)c3sccc3n2)n1 target_entity=MEK3 result=32
cpd_smiles=Cc1ccn2nc(-c3ccc(F)cc3)c(-c3ccncc3)c2c1.Cl target_entity=MEK3 result=0
cpd_smiles=Cn1ccc2ncnc(Oc3ccc(NC(=O)Nc4ccnc(C(F)(F)F)c4)c(Cl)c3)c21 target_entity=MEK3 result=8
cpd_smiles=Cc1ccc(C(=O)Nc2ccc(Oc3ccc4nc(NC(=O)C5CC5)cn4c3)c(F)c2)c(=O)n1-c1ccccc1 target_entity=MEK3 result=0
cpd_smiles=COc1cc2nccc(Nc3ccc(Oc4ccccc4)cc3)c2cc1OC.Cl target_entity=MEK3 result=0
cpd_smiles=CC(C)c1nc(-c2cccc(NS(=O)(=O)c3ccccc3)c2)c(-c2ccnc(Nc3ccc4c(c3)CN(C)CC4)n2)s1 target_entity=MEK3 result=17
cpd_smiles=C[C@@H](Oc1cc(-n2cnc3ccc(-c4ccncc4)cc32)sc1C(N)=O)c1ccccc1Cl target_entity=MEK3 result=34
